# system tested: leukotriene B4 specific receptor on the membrane of human neutrophils (Homo sapiens, UniProt Q15722)
# Construct: incubating neutrophils (1×10^7 cells) with 0.1-0.2 nM ^3 H-LTB4; endogenous in cells; host or cells: human peripheral blood neutrophils (buffy coats of two blood donors)
# Sequence (Q15722 whole entry): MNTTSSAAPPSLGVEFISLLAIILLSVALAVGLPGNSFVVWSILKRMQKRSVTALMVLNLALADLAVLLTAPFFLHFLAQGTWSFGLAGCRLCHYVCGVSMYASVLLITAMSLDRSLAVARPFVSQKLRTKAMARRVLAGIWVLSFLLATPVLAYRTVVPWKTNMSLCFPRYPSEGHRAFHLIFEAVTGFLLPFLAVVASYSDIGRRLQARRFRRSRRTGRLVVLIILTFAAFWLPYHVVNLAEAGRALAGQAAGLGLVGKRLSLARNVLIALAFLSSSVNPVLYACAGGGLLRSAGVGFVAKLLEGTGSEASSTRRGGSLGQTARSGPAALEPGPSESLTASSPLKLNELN
# test method notes: Inhibition of Binding of ^3 H-LTB4 to Peripheral Human Neutrophils
# condition set: drug concentration 10^-5 M; 4° C., 10 minutes; read-out: LTB4 Binding Inhibition
Given measured inhibition at 10 µM, output met if it is greater than or equal to 70% and not met if not.

The examples below pair each entry with its known result.
compound	answer label
CCc1cc(C(C)=O)c(O)cc1OCCCCc1nnn(C)n1	met
C=CCc1cc(C(C)=O)c(O)cc1OCCCCCC(=O)OC	met
CCCc1cc(C(C)=O)c(O)cc1OCCCc1ccccc1	not met

IN: Textbook exercise: given the entry CCc1cc(C(C)=O)c(O)cc1OCCCCc1nnnn1CC(=O)O , state whether its inhibition at 10 µM is greater than or equal to 70%.
OUT: not met

IN: Is it the case that C=CCCOc1cc(O)c(C(C)=O)cc1CC=C has inhibition at 10 µM reaching or exceeding 70%?
OUT: not met

IN: Has CCc1cc(C(C)=O)c(O)cc1OCCCC(C)(C)C(=O)O a recorded inhibition at 10 µM greater than or equal to 70%?
OUT: met

IN: Tell me whether inhibition at 10 µM is at least 70% here: C=CCc1cc(C(=O)c2ccccc2)c(O)cc1OCCCCC#N
OUT: not met

IN: Confirm if inhibition at 10 µM reported for the compound C=CCc1cc(C(C)=O)c(O)cc1OCCCCCC(=O)N(C)C is 70% or above.
OUT: met

IN: Is inhibition at 10 µM for CCc1cc(C(C)=O)c(O)cc1OCCCCCCC(=O)Nc1nnn[nH]1 at or above 70%?
OUT: met

IN: Is the recorded value of inhibition at 10 µM equal to or greater than 70% for this compound? CCc1cc(C(C)=O)c(O)cc1OCc1cccc(Cl)c1
OUT: not met

IN: Dear colleague, could you confirm whether CC(=O)c1cc(CC(C)O)c(OCCCCC#N)cc1O (stereo not shown) has inhibition at 10 µM at or above 70%?
OUT: not met

###

# Test system: Arachidonic Acid Induced Ear Edema
# test method notes: Arachidonic Acid-Induced Ear Edema Assay
# Assay type: in vivo, Female BALB/C mice
# condition set: Mus musculus, 1 h; 0.05% in ethanol gel, topical, one hour prior to arachidonic acid; read-out: Percent Inhibition of Ear Swelling
parameter measured: inhibition in vivo at 0.05 %

compound	inhibition in vivo at 0.05 %
CCc1cc(C(C)=O)c(O)cc1OCc1cccc(Cl)c1 [Example 56]	6%
C=CCc1cc(C(C)=O)c(O)cc1OCc1cccc(C#N)c1 [Example 50]	29 to 47%
CCCc1cc(C(C)=O)c(O)cc1OCCCc1ccccc1 [Example 53]	24%
C=CCc1cc(C(C)=O)c(O)cc1OCc1ccc(C#N)cc1 [Example 48]	13.6%
CCc1cc(C(C)=O)c(O)cc1OCc1cccc(SC)c1 [Example 59]	0%

IN: // returns reported inhibition in vivo at 0.05 % for input C=CCc1cc(C(C)=O)c(O)cc1OCc1ccccc1 [Example 47]
OUT: 52%

IN: Please look up its inhibition in vivo at 0.05 %: CCc1cc(C(C)=O)c(OC)cc1OCc1cccc(C#N)c1 [Example 114]
OUT: 40%

IN: Give the measured inhibition in vivo at 0.05 % of C=CCc1cc(C(C)=O)c(O)cc1OCc1cccc(C)c1 [Example 51] .
OUT: 43%

IN: State the recorded inhibition in vivo at 0.05 % for this entry: CCc1cc(C(C)=O)c(O)cc1OCc1cccc(C#N)c1 [Example 55]
OUT: 43 to 59%

IN: I'd like to know its inhibition in vivo at 0.05 %. The compound in question is C=CCc1cc(C(C)=O)c(O)cc1OCc1ccccc1C#N [Example 49]
OUT: 31%

IN: Data request, read-out inhibition in vivo at 0.05 %, for C=CCc1cc(C(C)=O)c(O)cc1OCc1cccc(-c2nnn(C)n2)c1 [Example 121]
OUT: 0%

###

# system tested: leukotriene B4 specific receptor on the membrane of human neutrophils (Homo sapiens)
# Construct: incubating neutrophils (1×10^7 cells) with 0.1-0.2 nM ^3 H-LTB4; endogenous in cells; host or cells: human peripheral blood neutrophils (buffy coats of two blood donors)
# test method notes: Inhibition of Binding of ^3 H-LTB4 to Peripheral Human Neutrophils
# condition set: drug concentration 10^-7 M; 4° C., 10 minutes
# Experimental: The effectiveness of compounds to inhibit the binding of leukotriene B4 to a specific receptor on the membrane of human neutrophils was measured by using an adaptation of a radio-ligand binding assay developed by Goldman and Goetzl, J. Immunol., 129, 1600 (1982). Other investigators have developed similar assays (see, e.g., Kreisle, et al., J. Exp. Med., 157, 628 (1983) and Lin, et al., Prostaglandins, 28, 837 (1984)). […]
Catalogue of compounds with associated inhibition at 0.1 µM
State just the number; it will be interpreted in %.

compound	uom	numeric readout
CCc1cc(C(C)=O)c(O)cc1OCc1cccc(C#N)c1 [Example 55]	%	25
CCc1cc(C(C)=O)c(O)cc1OCCCCCC(C)(C)c1nn[nH]n1 [Example 108]	%	60
CCc1cc(C(C)=NO)c(O)cc1OCCCCCC(C)(C)C(=O)O [Example 152]	%	3
CCc1cc(C(C)=O)c(O)cc1OCCCCCC(C)(C)C(=O)N(C)O [Example 149]	%	6

IN: Any idea what its inhibition at 0.1 µM is? The compound is CCc1cc(C(C)=O)c(O)cc1OCCCCCC(C)(C)C(=O)O [Example 87]
OUT: 20

IN: Quick one: inhibition at 0.1 µM for CCc1cc(CC)c(OCCCCCC(C)(C)c2nnn[nH]2)cc1O [Example 151] ?
OUT: 78

IN: Recorded inhibition at 0.1 µM for CCc1cc(C(C)=O)c(O)cc1OCCCCCC(C)(C)C(N)=O [Example 101] , please?
OUT: 45

IN: Look up inhibition at 0.1 µM for this compound: C=CCc1cc(C(C)=O)c(O)cc1OCc1cccc(C#N)c1 [Example 50]
OUT: 25

###

The reader will find reported inhibition at 1 µM values listed item by item below.
# system tested: leukotriene B4 specific receptor on the membrane of human neutrophils (Homo sapiens, UniProt Q15722)
# Construct: incubating neutrophils (1×10^7 cells) with 0.1-0.2 nM ^3 H-LTB4; endogenous in cells; host or cells: human peripheral blood neutrophils (buffy coats of two blood donors)
# test method notes: Inhibition of Binding of ^3 H-LTB4 to Peripheral Human Neutrophils
# condition set: drug concentration 10^-6 M; 4° C., 10 minutes
Give the quantity in %, number only.

Examples with their reported inhibition at 1 µM follow.
compound	numeric readout
C=CCCCCOc1cc(O)c(C(C)=O)cc1CC=C [Example 46]	26
CCc1cc(C(=O)c2ccccc2)c(O)cc1OCCCCC#N [Example 130]	23
C=CCc1cc(C(C)=O)c(O)cc1OCCCC [Example 40, 4-Butoxy-2-hydroxy-5-allylacetophenone]	8
C=CCc1cc(C(C)=O)c(O)cc1OCCCCCC(=O)O [Example 86]	23
C=CCc1cc(C(C)=O)c(O)cc1OCCCCCCCC [Example 38]	8
CCc1cc(C(C)=O)c(O)cc1OCc1cccc(C#N)c1 [Example 55]	71

IN: So what's the measured inhibition at 1 µM for this one? CCc1cc(C(C)=O)c(O)cc1OCCCCCN [Example 137]
OUT: 22

IN: Fill in the blank: the reported inhibition at 1 µM of C=CCc1cc(C(C)=O)c(O)cc1OC [Example 42, 2-Hydroxy-4-methoxy-5-allylacetophenone] is ____.
OUT: 12

###

# system tested: leukotriene B4 specific receptor on the membrane of human neutrophils (Homo sapiens, UniProt Q15722)
# Construct: incubating neutrophils (1×10^7 cells) with 0.1-0.2 nM ^3 H-LTB4; endogenous in cells; host or cells: human peripheral blood neutrophils (buffy coats of two blood donors)
# test method notes: Inhibition of Binding of ^3 H-LTB4 to Peripheral Human Neutrophils
# condition set: drug concentration 10^-6 M; 4° C., 10 minutes
Response field class: string, computed from recorded inhibition at 1 µM by ranges low interval: < 30%; middle interval: ≥ 30% and < 50%; high interval: ≥ 50%

molecule	answer label
CCc1cc(C(C)=O)c(OC)cc1OCc1cccc(C#N)c1 [Example 114]	low interval

IN: Input C=CCc1cc(C(C)=O)c(O)cc1OCc1cccc(C)c1 [Example 51] ; output its category
OUT: middle interval

IN: # bin lookup: classify CCCCc1cc(C(C)=O)c(O)cc1OCCCCC#N [Example 30] by its inhibition at 1 µM
OUT: low interval

IN: Bin this entry: C=CCc1cc(C(C)=O)c(O)cc1OCCCCCCSC [Example 78]
OUT: middle interval

IN: Using the reported inhibition at 1 µM, which band applies to C=CCc1cc(C(C)=O)c(O)cc1OCCCCCCCCCCC#N [Example 70] ?
OUT: low interval

IN: Where would CCc1cc(C(C)=O)c(O)cc1OCCCCCC(C)(C)C(N)=O [Example 101] land among the classes by reported inhibition at 1 µM?
OUT: high interval

IN: Hey, which category is C=CCc1cc(C(C)=O)c(O)cc1OCCCCCC(=O)N(C)C [Example 97] in, do you know?
OUT: high interval

IN: In plain terms, what class is CCc1cc(C(C)=O)c(O)cc1OCCCC(C)(C)C(=O)O [Example 134] ?
OUT: middle interval
